Here's a roundup of IC50 values tested on human ACC2 (Homo sapiens (Human), UniProt O00763), taken from various published works.
Write the number in nM without appending the unit.

Look up IC50 with human ACC2 (Homo sapiens (Human), UniProt O00763) for this molecule: COc1ncccc1C#Cc1ccc(CC(C)NC(C)=O)cc1 (centres unmarked) 5300

Look up IC50 with human ACC2 (Homo sapiens (Human), UniProt O00763) for this molecule: `C[C@H](NC(=O)c1cnn(CCO)c1)c1ccc(O[C@@H]2CCN(c3ccc(OCC4CC4)cc3)C2)cc1` 495

Look up IC50 with human ACC2 (Homo sapiens (Human), UniProt O00763) for this molecule: CC(=O)NC(C)Cc1ccc(C#Cc2ccc(CCO)cc2)cc1 (centres unmarked) 2200

Look up IC50 with human ACC2 (Homo sapiens (Human), UniProt O00763) for this molecule: Cc1nocc1C(=O)NC(C)Cc1ccc(C2CN(c3ccc(OCC4CC4)cc3)C2)cc1 (centres unmarked) 2790

Look up IC50 with human ACC2 (Homo sapiens (Human), UniProt O00763) for this molecule: CC(=O)NC(C)Cc1ccc(C2CN(c3cnc(OC4CCC4)nc3)C2)cc1 (centres unmarked) 3810

Look up IC50 with human ACC2 (Homo sapiens (Human), UniProt O00763) for this molecule: Cc1oncc1C(=O)N[C@@H](C)c1ccc(OC2CCN(c3ccnc(OC(C)C)c3)C2)cc1 (some centres unmarked) 69

Look up IC50 with human ACC2 (Homo sapiens (Human), UniProt O00763) for this molecule: `Cc1oncc1C(=O)N[C@@H](C)c1ccc(O[C@@H]2CCN(c3ccc(OCC4CC4)cc3)C2)cc1` 45

Look up IC50 with human ACC2 (Homo sapiens (Human), UniProt O00763) for this molecule: CC(=O)NC(C)Cc1ccc(C#Cc2ccc(Oc3cncnc3)cc2)cc1 (centres unmarked) 190

Look up IC50 with human ACC2 (Homo sapiens (Human), UniProt O00763) for this molecule: CC(=O)NC(C)Cc1ccc(C#Cc2cnc(N3CCC4(CCCC4)C3)nc2)cc1 (centres unmarked) 280

Look up IC50 with human ACC2 (Homo sapiens (Human), UniProt O00763) for this molecule: `CCOc1ccc2c(c1)CCN(Cc1ccc([C@H](C)NC(=O)C3CC3)cc1)C2` 180

Look up IC50 with human ACC2 (Homo sapiens (Human), UniProt O00763) for this molecule: `Cc1ccc(-c2ccc(Cl)cc2)cc1C1=C(O)C2(CCCCC2)SC1=O` 1670

Look up IC50 with human ACC2 (Homo sapiens (Human), UniProt O00763) for this molecule: `CC(=O)N[C@@H](C)c1ccc(O[C@@H]2CCN(c3ccnc(N(C)CC(F)F)c3F)C2)cc1` 42

Look up IC50 with human ACC2 (Homo sapiens (Human), UniProt O00763) for this molecule: COC(C)CN(C)c1nccc(C#Cc2ccc(CC(C)NC(C)=O)cc2)n1 (centres unmarked) 1700

Look up IC50 with human ACC2 (Homo sapiens (Human), UniProt O00763) for this molecule: `COc1c(OCC(F)F)ccc2c1CCN(Cc1ccc([C@H](C)NC(C)=O)cc1)C2` 340

Look up IC50 with human ACC2 (Homo sapiens (Human), UniProt O00763) for this molecule: COC(=O)N[C@@H](C)c1ccc(OC2CCN(c3ccc(OCC4CC4(F)F)cn3)C2)cc1 (some centres unmarked) 59

Look up IC50 with human ACC2 (Homo sapiens (Human), UniProt O00763) for this molecule: `Cc1ccc(-c2ccc(C(F)(F)F)cc2)cc1-c1c(O)c2ccc(Cl)cc2[nH]c1=O` 18900

Look up IC50 with human ACC2 (Homo sapiens (Human), UniProt O00763) for this molecule: `Cc1ccc(-c2ccc(Cl)cc2)cc1C1=C(O)C2(CCCC2)NC1=O` 4000

Look up IC50 with human ACC2 (Homo sapiens (Human), UniProt O00763) for this molecule: `CC(=O)NC(C)(C)c1ccc(C#Cc2ccc(OC(C)C)nc2)cc1` 21600

Look up IC50 with human ACC2 (Homo sapiens (Human), UniProt O00763) for this molecule: `C[C@H](NC(=O)C(C)(C)O)c1ccc(C2CN(c3ccc(OCC4CC4)cc3)C2)cc1` 3080

Look up IC50 with human ACC2 (Homo sapiens (Human), UniProt O00763) for this molecule: CCNC(=O)C(C)c1ccc(C2CCN(c3ccnc(NC(C)C)n3)CC2)cc1 (centres unmarked) 7630

Look up IC50 with human ACC2 (Homo sapiens (Human), UniProt O00763) for this molecule: `C[C@H](NC(=O)C1CC1)c1ccc(CN2CCc3cc(OC4CCC4)ccc3C2)cc1` 193

Look up IC50 with human ACC2 (Homo sapiens (Human), UniProt O00763) for this molecule: CC(=O)NC(C)Cc1ccc(C#Cc2ccc(OC3CCCOC3)cc2)cc1 (centres unmarked) 190

Look up IC50 with human ACC2 (Homo sapiens (Human), UniProt O00763) for this molecule: CCCOc1cc(N2CCC(Oc3ccc([C@H](C)NC(C)=O)cc3)C2)c(F)cn1 (some centres unmarked) 70

Look up IC50 with human ACC2 (Homo sapiens (Human), UniProt O00763) for this molecule: CC(=O)N[C@@H](C)c1ccc(OC2CCN(c3cccc(C4CCCC4)n3)C2)cc1 (some centres unmarked) 115

Look up IC50 with human ACC2 (Homo sapiens (Human), UniProt O00763) for this molecule: CC(=O)NC(C)c1ccc(CN2CCc3cc(C(F)F)ccc3C2)cc1 (centres unmarked) 789

Look up IC50 with human ACC2 (Homo sapiens (Human), UniProt O00763) for this molecule: C[C@H](NC(=O)N1CCOCC1)c1ccc(OC2CCN(c3ccnc(OCC4CC4(F)F)c3F)C2)cc1 (some centres unmarked) 310
